# Tested on: 993429-296-R-J1-PDC complex spheroid growth, percent test/control;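 also: spheroids exposed to compounds for seven days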
# methodDescription: Anticancer human tumor 993429-296-R-J1-PDC patient-derived uterine sarcoma cell line growth inhibition [Asc]
# conditionInfo: second compound 0.03 µM; first compound 0.00316 µM; stronger effect = lower value
quantityKind: viability, T/C (%)
Respond with the bare value in %.

input: Recorded viability, T/C for Cn1ncnc1[C@H]1c2n[nH]c(=O)c3cc(F)cc(c23)N[C@@H]1c1ccc(F)cc1 + CCN1C(C(=O)NC23CCC(C(=O)O)(CC2)CC3)C(c2cccc(Cl)c2F)C2(C(=O)Nc3cc(Cl)ccc32)C12CCCCC2 , please?
output: 104

input: # viability, T/C lookup, item O=C(c1ccc(F)c(F)c1Nc1ccc(I)cc1F)N1CC(O)([C@@H]2CCCCN2)C1 + CCN1C(C(=O)NC23CCC(C(=O)O)(CC2)CC3)C(c2cccc(Cl)c2F)C2(C(=O)Nc3cc(Cl)ccc32)C12CCCCC2
output: 98

input: Using the record for CNC(C)C(=O)NC1CN(S(=O)(=O)c2cccc(S(=O)(=O)N3CCC4CCC(C(=O)NC(c5ccccc5)c5ccccc5)N4C(=O)C(NC(=O)C(C)NC)C3)c2)CCC2CCC(C(=O)NC(c3ccccc3)c3ccccc3)N2C1=O (stereo unspecified) + CCN1C(C(=O)NC23CCC(C(=O)O)(CC2)CC3)C(c2cccc(Cl)c2F)C2(C(=O)Nc3cc(Cl)ccc32)C12CCCCC2 , report its viability, T/C.
output: 71.4

input: Any idea what its viability, T/C is? The molecule is COc1c(OCCCN2CCOCC2)ccc2c3n(c(=NC(=O)c4cnc(N)nc4)nc12)CCN3 + CCN1C(C(=O)NC23CCC(C(=O)O)(CC2)CC3)C(c2cccc(Cl)c2F)C2(C(=O)Nc3cc(Cl)ccc32)C12CCCCC2
output: 94.7

input: For the molecule shown here, CCN1CCN(Cc2ccc(Nc3ncc(F)c(-c4cc(F)c5nc(C)n(C(C)C)c5c4)n3)nc2)CC1 + CCN1C(C(=O)NC23CCC(C(=O)O)(CC2)CC3)C(c2cccc(Cl)c2F)C2(C(=O)Nc3cc(Cl)ccc32)C12CCCCC2 , give the reported viability, T/C.
output: 101

input: So what's the measured viability, T/C for this one? NC1CCC(NC2CC2c2ccccc2)CC1 (stereo unspecified) + CCN1C(C(=O)NC23CCC(C(=O)O)(CC2)CC3)C(c2cccc(Cl)c2F)C2(C(=O)Nc3cc(Cl)ccc32)C12CCCCC2
output: 80.2
